- assay-system: human hNET (Homo sapiens)
- Construct: expressed in transfected cells; host or cells: MDCK-Net6 (MDCK cells, stably transfected)
- protocol-details: Norepinephrine (NE) uptake assay in MDCK-Net6 cells
- Format: cell-based
- setup-conditions: 1 μM test compound, [3H]NE uptake, read-out: % Inhibition @ 1 μM (hNET)
Counter-ions that a name gives are not always drawn.
recorded-metric: inhibition at 1 µM (%)

| molecule | recorded-metric | reading |
| --- | --- | --- |
| OC1([C@H](CN2CCN3CCCCC3C2)c2cccc(OC(F)(F)F)c2)CCCCC1 (some centres unmarked) [Example 371, dihydrochloride] | inhibition at 1 µM | 78 |

P. COc1ccccc1COc1ccc(C(CN2CCN(C)CC2)C2(O)CCCCC2)cc1Cl (centres unmarked) [Example 457, dihydrochloride]
Q. CC#Cc1cccc(C(CN2CCN(C)CC2)C2(O)CCCCC2)c1 (centres unmarked) [Example 301, dihydrochloride]
R. CN1CCN(CC(c2ccc(-c3cccc([N+](=O)[O-])c3)cc2)C2(O)CCCCC2)CC1 (centres unmarked) [Example 178, dihydrochloride]
S. NC1CCN(CC(c2cccc(-c3ccc(Cl)c(Cl)c3)c2)C2(O)CCCCC2)CC1 (centres unmarked) [Example 152, dihydrochloride]
T. CN1CCN(CC(c2cccc(OCc3ccccc3)c2)C2(O)CCCCC2)CC1 (centres unmarked) [Example 108, dihydrochloride]
Hello, I need these entries ordered by inhibition at 1 µM, highest reading first. Thanks! A ranking is expressed here by listing the labels in the requested order. P, R, Q, S, T

###

- assay-system: human hNET (Homo sapiens, UniProt P23975)
- Construct: expressed in transfected cells; host or cells: MDCK-Net6 (MDCK cells, stably transfected)
- Sequence (P23975 whole entry): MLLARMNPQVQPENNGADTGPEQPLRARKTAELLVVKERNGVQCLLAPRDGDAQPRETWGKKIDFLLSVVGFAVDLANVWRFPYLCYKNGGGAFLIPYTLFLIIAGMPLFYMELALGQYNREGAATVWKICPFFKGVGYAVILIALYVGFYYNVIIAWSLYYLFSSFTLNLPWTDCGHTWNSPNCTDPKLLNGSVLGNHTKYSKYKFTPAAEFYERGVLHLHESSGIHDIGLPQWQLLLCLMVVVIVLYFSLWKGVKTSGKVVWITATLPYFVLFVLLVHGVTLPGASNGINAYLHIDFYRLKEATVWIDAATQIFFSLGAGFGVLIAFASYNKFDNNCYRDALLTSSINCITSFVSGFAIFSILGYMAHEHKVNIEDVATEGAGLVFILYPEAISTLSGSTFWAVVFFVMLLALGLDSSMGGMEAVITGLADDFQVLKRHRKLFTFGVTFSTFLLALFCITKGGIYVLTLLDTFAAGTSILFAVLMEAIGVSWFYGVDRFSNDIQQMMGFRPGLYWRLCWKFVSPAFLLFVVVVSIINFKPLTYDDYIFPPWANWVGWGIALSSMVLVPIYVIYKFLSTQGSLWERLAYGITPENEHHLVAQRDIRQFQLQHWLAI
- protocol-details: Norepinephrine (NE) uptake assay in MDCK-Net6 cells
- Type: cell-based
- setup-conditions: 1 μM test compound, [3H]NE uptake, read-out: % Inhibition @ 1 μM (hNET)
Counter-ions that a name gives are not always drawn.
recorded-metric: inhibition at 1 µM (%)

Sample answers from the record:
| compound | assay-system | inhibition at 1 µM, % |
| --- | --- | --- |
| CN1CCN(CC(c2ccc(OCC3CCCCC3)cc2)C2(O)CCCCC2)CC1 (centres unmarked) [Example 468, dihydrochloride] | human hNET (Homo sapiens, UniProt P23975) | 0 |
| CN1CCN(C[C@@H](c2ccc(OCc3ccccc3)c(Cl)c2)C2(O)CCCCC2)CC1 [Example 325, dihydrochloride] | human hNET (Homo sapiens, UniProt P23975) | 93.9 |
| COc1cc(C(CN2CCN(C)CC2)C2(O)CCCCC2)cc(Br)c1OCc1ccccc1 (centres unmarked) [Example 391, dihydrochloride] | human hNET (Homo sapiens, UniProt P23975) | 30 |
| OC1([C@@H](CN2CCNCC2)c2cccc(Oc3ccccc3)c2)CCCCC1 (single isomer, unassigned) [Example 358, dihydrochloride] | human hNET (Homo sapiens, UniProt P23975) | 73 |
| CCN1CCN(CC(c2ccc(OC(F)(F)F)cc2)C2(O)CCCCC2)CC1 (centres unmarked) [Example 287, dihydrochloride] | human hNET (Homo sapiens, UniProt P23975) | 60.8 |

A. CN1CCN(CC(c2ccc(-c3ccc(F)cc3)cc2)C2(O)CCCCC2)CC1 (centres unmarked) [Example 180, dihydrochloride]
B. CN1CCN(CC(c2ccc(OCc3ccc(C(F)(F)F)cc3)c(F)c2)C2(O)CCCCC2)CC1 (centres unmarked) [Example 416, dihydrochloride]
C. CN1CCN(CC(c2ccc(O)c(OC(F)(F)F)c2)C2(O)CCCCC2)CC1 (centres unmarked) [Example 401, dihydrochloride]
Put the compounds in ascending order of inhibition at 1 µM. Note for the reader: the ranking is given by listing the labels in the order requested. C, A, B
(C: 25%, A: 47%, B: 91%)

A. N#Cc1cccc(-c2ccc(C(CN3CCNCC3)C3(O)CCCCC3)cc2)c1 (centres unmarked) [Example 168, dihydrochloride]
B. OC1(C(CN2CCNCC2)c2ccc(-c3cccc(Cl)c3)cc2)CCC1 (centres unmarked) [Example 182, dihydrochloride]
Between the entries labelled A and B , which has a larger inhibition at 1 µM value on record? Selection: enter the item's label. A
(A: 66%, B: 43%)

a. CN1CCN(CC(c2cc(Br)c(OCc3ccccc3)c(Br)c2)C2(O)CCCCC2)CC1 (centres unmarked) [Example 393, dihydrochloride]
b. OC1(C(CN2CCNCC2)c2ccc(-c3cc(Cl)cc(Cl)c3)cc2)CCC1 (centres unmarked) [Example 185, dihydrochloride]
Would you let me know which has the greater inhibition at 1 µM value, a or b ? Provide the label of your selected option as the answer. a

P. CC(C)N1CCN(CC(c2cccc(OC(F)(F)F)c2)C2(O)CCCCC2)CC1 (centres unmarked) [Example 362, dihydrochloride]
Q. C=Cc1cccc(C(CN2CCNCC2)C2(O)CCCCC2)c1 (centres unmarked) [Example 162, dihydrochloride]
# min-compare on inhibition at 1 µM between P and Q Response format: the label of the selected entry. P
(P: 51%, Q: 78%)

A. OC1(C(CN2CCNCC2)c2ccc(OCCc3ccccc3)cc2)CCCCC1 (centres unmarked) [Example 459, dihydrochloride]
B. OC1(C(CN2CCNCC2)c2ccc(-c3ccc(Cl)c(Cl)c3)cc2)CCC1 (centres unmarked) [Example 184, dihydrochloride]
C. CC(C)COc1ccc(C(CN2CCN(C)CC2)C2(O)CCCCC2)cc1OC(F)(F)F (centres unmarked) [Example 407, dihydrochloride]
List these items ordered by inhibition at 1 µM, big to small. List each label, following the requested order. A, B, C

A. CN1CCN(CC(c2ccc(OCc3ccc(C(F)(F)F)cc3)c(Cl)c2)C2(O)CCCCC2)CC1 (centres unmarked) [Example 420, dihydrochloride]
B. C[C@@H](Oc1ccc(C(CN2CCN(C)CC2)C2(O)CCCCC2)cc1)c1ccccc1 (some centres unmarked) [Example 469, dihydrochloride]
Which value of inhibition at 1 µM is greater, the one for A or the one for B ? Answer format: the label of the selected item. A
(A: 68%, B: 12%)

I. OC1(C(CN2CCNCC2)c2cccc(-c3ccc(Cl)c(Cl)c3)c2)CCCCC1 (centres unmarked) [Example 135, dihydrochloride]
II. C[C@@H]1CN(C[C@H](c2cccc(OC(F)(F)F)c2)C2(O)CCCCC2)C[C@H](C)N1 [Example 367, dihydrochloride]
Determine, for I and II , which has the greater value of inhibition at 1 µM. Pick one; state its label. II
(II: 94%, I: 65%)
